target: CYP2C9 (Homo sapiens)
Sequence (P11712 whole entry): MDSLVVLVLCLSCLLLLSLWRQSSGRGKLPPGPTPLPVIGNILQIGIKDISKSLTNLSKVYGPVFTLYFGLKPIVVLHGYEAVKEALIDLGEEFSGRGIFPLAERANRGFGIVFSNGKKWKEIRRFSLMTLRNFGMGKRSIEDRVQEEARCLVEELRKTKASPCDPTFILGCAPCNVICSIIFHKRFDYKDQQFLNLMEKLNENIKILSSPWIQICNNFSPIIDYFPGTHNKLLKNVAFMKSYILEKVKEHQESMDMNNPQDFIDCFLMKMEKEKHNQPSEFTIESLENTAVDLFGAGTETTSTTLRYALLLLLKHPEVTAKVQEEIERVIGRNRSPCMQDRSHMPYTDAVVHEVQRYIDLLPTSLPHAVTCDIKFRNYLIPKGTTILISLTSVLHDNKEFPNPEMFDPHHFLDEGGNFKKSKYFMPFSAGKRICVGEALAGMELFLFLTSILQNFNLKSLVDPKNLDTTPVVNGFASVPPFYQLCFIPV
quantity: IC50

> print(dat)
                              smiles.string  assay.result
1  Cc1ccc(-c2c([C@H](OC(C)(C)C)C(=O)O)c(C)c3c4c2cc(-c2ccnc(-c5ccc6c(cnn6C)c5)c2)n4CCN3CCN(C)C)cc1       > 20 µM

* * *

target: CYP2D6 (Homo sapiens, UniProt P10635)
Sequence (P10635 whole entry): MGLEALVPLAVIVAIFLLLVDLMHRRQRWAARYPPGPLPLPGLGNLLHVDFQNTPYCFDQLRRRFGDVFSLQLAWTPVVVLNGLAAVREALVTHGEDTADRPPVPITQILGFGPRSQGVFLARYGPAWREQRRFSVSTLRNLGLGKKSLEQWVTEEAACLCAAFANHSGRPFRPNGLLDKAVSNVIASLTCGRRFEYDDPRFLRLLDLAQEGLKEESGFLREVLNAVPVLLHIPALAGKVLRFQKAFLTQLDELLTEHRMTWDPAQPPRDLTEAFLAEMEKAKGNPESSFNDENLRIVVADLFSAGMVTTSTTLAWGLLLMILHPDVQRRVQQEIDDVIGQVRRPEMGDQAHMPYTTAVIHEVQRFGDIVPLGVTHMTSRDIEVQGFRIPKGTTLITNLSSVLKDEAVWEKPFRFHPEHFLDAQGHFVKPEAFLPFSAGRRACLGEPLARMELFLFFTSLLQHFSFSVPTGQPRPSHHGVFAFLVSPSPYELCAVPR
pIC50: −log10 of the molar value.
quantity: pIC50

> print(dat)
                              smiles.string                         assayed.target  quantity  assay.result
1  Cc1ccc(-c2c([C@H](OC(C)(C)C)C(=O)O)c(C)c3c4c2cc(-c2ccnc(-c5ccc6c(cnn6C)c5)c2)n4CCN3CCN(C)C)cc1  CYP2D6 (Homo sapiens, UniProt P10635)     pIC50        < 4.70
